Ref: PubChem BioAssay (NCI)

System: OVCAR-8 ovarian
assay.remarks: NCI tumour cell line growth inhibition, 48 h
Overview of reported TGI across a group of compounds:

Challenge: Please look up its TGI: C=C1C(C[C@@H]2O[C@H]3C[C@H]4O[C@@]5(C[C@@H]6O[C@]7(C[C@H](C)[C@@H]8O[C@@H]9CC(C(O)CO)O[C@@H]9C[C@@H]8O7)C[C@H](C)[C@@H]6O5)C[C@H]4O[C@H]3[C@H](C)[C@H]2O)O[C@@H](CC[C@@H]2O[C@@H](CC[C@@]34CC5O[C@H]6C(O[C@H]7CC[C@H](CC(=O)OC)O[C@@H]7[C@@H]6O3)[C@H]5O4)CC2=C)C[C@H]1C (some centres undefined)
Response given: 0.0125 µM

Challenge: Please look up its TGI: "COc1cc(/C=C/C(=O)O)ccc1O"
Response given: > 100 µM

Challenge: Please look up its TGI: "CN(C)CCCn1c2c3ccccc3ccc2c2oc(=O)c3ccccc3c21"
Response given: 8.75 µM

Others:
Challenge: Please look up its TGI: COC1CC(OS(=O)(=O)c2ccc(C)cc2)C(OS(=O)(=O)c2ccc(C)cc2)C(COS(=O)(=O)c2ccc(C)cc2)O1 (centres undefined)
Response given: 6.06 µM

Challenge: Please look up its TGI: "O=S(=O)(O)Nc1ccc(-c2nc3ccccc3s2)cc1Cl"
Response given: > 100 µM

Challenge: Please look up its TGI: "O=C(Nc1ccc(Nc2ccncc2)cc1)c1ccc(Nc2ccnc3ccc([N+](=O)[O-])cc23)cc1"
Response given: > 100 µM

Challenge: Please look up its TGI: "COc1ccc(C=NC23CC4CC(CC(C4)C2)C3)cc1"
Response given: > 100 µM

Challenge: Please look up its TGI: "COc1cccc(/C=C/C(=O)c2cc3c(N)c(C(=O)Nc4cccc(Cl)c4C)sc3nc2C)c1"
Response given: > 50 µM

Challenge: Please look up its TGI: CC1(C)OC2CN(C(=O)OCc3ccccc3)C(CO)C2O1 (centres undefined)
Response given: > 100 µM

Challenge: Please look up its TGI: "COC(=O)c1ccc(NCC2=CC(=O)c3ccccc3C2=O)cc1"
Response given: > 100 µM

Challenge: Please look up its TGI: O=S(=O)(NC(c1ccccc1)(c1cc2ccccc2[nH]1)c1cc2ccccc2n1S(=O)(=O)c1ccccc1)c1ccccc1 (centres undefined)
Response given: > 100 µM

----------
Tested on: MDA-MB-231 breast
assay.remarks: NCI tumour cell line growth inhibition, 48 h
measurement.kind: TGI (µM)
Write it as a number; the unit µM goes unstated.

The following compounds have reported results that may help.
Challenge: Please look up its TGI: "O=C(/C(Cl)=C/c1ccccc1)c1ccccc1"
Response given: 20.6

Challenge: Please look up its TGI: "CC(=O)Oc1cccc2c1C(=O)C(Br)(Br)CCC2"
Response given: 8.41

Challenge: Please look up its TGI: "O=[N+]([O-])/C(C(Cl)=C(Cl)Cl)=C(/Sc1ccccc1)N1CCOCC1"
Response given: 19.8

Now for another entry.
Challenge: Please look up its TGI: "CCS(=O)(=O)c1ccc(OC)c(Nc2nccc(N(C)c3ccc4c(C)[nH]nc4c3)n2)c1"
Response given: 9.45

----------
Overview of reported TGI across a group of compounds:
Tested on: MOLT-4 leukemia
assay.remarks: NCI tumour cell line growth inhibition, 48 h

The following compounds have reported results that may help.
Challenge: Please look up its TGI: CC1C=C(NCC2(CO)CCC2)NC(N)=N1 (stereo not given)
Response given: > 100 µM

Challenge: Please look up its TGI: CC1=CC[C@H](C)C(C)(C)C1/C=C/C(C)=C/CC[C@@]1(CO)[C@H](CCCO)/C(=C(/C)C=O)CC[C@]1(C)O (stereo not given in full)
Response given: 20.5 µM

Challenge: Please look up its TGI: "C=C1CC(CNc2cc(Cl)nc(N)n2)C1"
Response given: > 100 µM

Challenge: Please look up its TGI: C=C1C(C[C@@H]2O[C@H]3C[C@H]4O[C@@]5(C[C@@H]6O[C@]7(C[C@H](C)[C@@H]8O[C@@H]9CC(C(O)CO)O[C@@H]9C[C@@H]8O7)C[C@H](C)[C@@H]6O5)C[C@H]4O[C@H]3[C@H](C)[C@H]2O)O[C@@H](CC[C@@H]2O[C@@H](CC[C@@]34CC5O[C@H]6C(O[C@H]7CC[C@H](CC(=O)OC)O[C@@H]7[C@@H]6O3)[C@H]5O4)CC2=C)C[C@H]1C (stereo not given in full)
Response given: > 1 µM

Challenge: Please look up its TGI: "Cc1ccc(NS(=O)(=O)c2cc(C)ccc2C)cc1"
Response given: > 100 µM

Challenge: Please look up its TGI: "C#CCSc1cnc2ccccc2c1Sc1c[nH]c2ccccc2c1=O"
Response given: > 100 µM

Others:
Challenge: Please look up its TGI: "CNC=O"
Response given: > 10000 µM

Challenge: Please look up its TGI: "C/C(=C1/N=C(c2cc([N+](=O)[O-])ccc2Cl)N(C2=CC=C(Cl)CC2)C1=O)c1cc2ccccc2oc1=O"
Response given: > 100 µM

Challenge: Please look up its TGI: "COc1cccc2c1C(=O)c1ccc3cc(CO)cc(O)c3c1C2=O"
Response given: 4.22 µM

Challenge: Please look up its TGI: N#CSCC1CC(O)(c2ccccc2)C(c2ccccc2)C(c2ccc(F)cc2)O1 (stereo not given)
Response given: 4.51 µM

----------
Overview of reported TGI across a group of molecules:
Tested on: UACC-257 melanoma
assay.remarks: NCI tumour cell line growth inhibition, 48 h
Write it as a number; the unit µM goes unstated.

The following molecules have reported results that may help.
Challenge: Please look up its TGI: "COC(=O)c1ccc(NCC2=CC(=O)c3ccccc3C2=O)cc1"
Response given: 29.4

Challenge: Please look up its TGI: "Cc1ccc(NS(=O)(=O)c2cc(C)ccc2C)cc1"
Response given: 47.4

Challenge: Please look up its TGI: "CCc1nc2ccc(Cc3ccc(C(=O)NO)cc3)cc2c(=O)n1CCc1ccccc1"
Response given: 2.47

Challenge: Please look up its TGI: "COc1ncc(C#CC(=O)c2ccccc2OC)c(OC)n1"
Response given: 8.79

Challenge: Please look up its TGI: "O=C(c1ccc(NCN2C(=O)CCC2=O)cc1)c1ccc(NCN2C(=O)CCC2=O)cc1"
Response given: 84.6

Others:
Challenge: Please look up its TGI: Clc1cc(Cl)cc(N2N=C(c3cccc(Nc4ccncc4)c3)CC2c2ccc(Br)cc2)c1 (stereo unspecified)
Response given: 3.85

Challenge: Please look up its TGI: "C/C(=N/NC(=S)N(Cc1ccccn1)Cc1ccccn1)c1cnccn1"
Response given: 8.61

Challenge: Please look up its TGI: "CN1CCN(Cc2ccc(NC(=O)c3[nH]ncc3Nc3ncnc4c3CCC4)cc2)CC1"
Response given: 15.4

Challenge: Please look up its TGI: "Cc1cc(S(N)(=O)=O)c(S/C(=N\Nc2ccc([N+](=O)[O-])cc2)c2ccc(Cl)cc2)cc1Cl"
Response given: 8.7

Challenge: Please look up its TGI: "CC1(C)N=C(N)N=C(N)N1c1cccc(CCCCc2ccc(S(=O)(=O)F)cc2Cl)c1"
Response given: 20.8

Challenge: Please look up its TGI: "Nc1ccccc1Sc1ccc(Cl)cc1"
Response given: 54.1

Challenge: Please look up its TGI: "CCOC(=O)[C@@H](C)C[C@H](Cc1ccccc1)NC(=O)c1csc([C@@H](C[C@H](C(C)C)N(C)C(=O)[C@H](CCC(C)C)NC(=O)[C@H]2CCCCN2C)OC(C)=O)n1"
Response given: 10.3

Challenge: Please look up its TGI: "O=C(c1ccco1)N1CCN(C(=O)c2ccco2)C1=S"
Response given: 23.3

Challenge: Please look up its TGI: "Cc1ccc(NC(=S)NNC(=O)c2cc(-c3ccccc3)nc3ccccc23)cc1C"
Response given: 60.1

Challenge: Please look up its TGI: "Cl.Fc1c[c-]c(-c2ccccn2)c(F)c1.[Pt].c1ccc([PH+](CC[PH+](c2ccccc2)c2ccccc2)c2ccccc2)cc1"
Response given: 0.975

Challenge: Please look up its TGI: "O=C(Nc1cc(Cl)ccc1O)c1cccc(NC2=C(Cl)C(=O)N(Cc3ccccc3)C2=O)c1"
Response given: 68.2

Challenge: Please look up its TGI: "C#CC[C@H](c1nc2cc(Cl)ccc2c(=O)n1Nc1ccccc1)N(CCCN)C(=O)c1cccc(Cl)c1F"
Response given: 2.37

Challenge: Please look up its TGI: "N#CC(C#N)=CN1CCN(C(=O)c2ccccc2)C1=S"
Response given: 81.9

----------
Test system: MCF7 breast
assay.remarks: NCI tumour cell line growth inhibition, 48 h
Overview of reported TGI across a group of molecules:

The following molecules have reported results that may help.
Challenge: Please look up its TGI: "C#CCSc1cnc2ccccc2c1Sc1c[nH]c2ccccc2c1=O"
Response given: > 100 µM

Challenge: Please look up its TGI: "CCOC(=O)C(Cc1c[nH]c2cc([N+](=O)[O-])ccc12)(NC(C)=O)C(=O)OCC"
Response given: > 1000 µM

Others:
Challenge: Please look up its TGI: CC(=O)O/C(=C(/C#N)C(=O)O)C1C(C(=O)O)C(c2ccccc2[N+](=O)[O-])C=C(c2ccco2)N1c1ccncc1 (stereo not drawn)
Response given: 4.38 µM

Challenge: Please look up its TGI: "COc1ccc(NC(C)=O)c(C(=O)CCNC(C)=O)c1"
Response given: > 100 µM

Challenge: Please look up its TGI: "COc1ccc(C(=O)/C=C/c2cc(C(=O)c3cc(OC)c(OC)c(OC)c3)ccc2OC)cc1"
Response given: > 100 µM

Challenge: Please look up its TGI: CC1=NN(C(=O)CC(=O)Nc2cccc(Cl)c2)C(=O)C1N=Nc1ccc(S(=O)(=O)c2ccc(N=NC3C(=O)N(C(=O)CC(=O)Nc4cccc(Cl)c4)N=C3C)cc2)cc1 (stereo not drawn)
Response given: > 100 µM

Challenge: Please look up its TGI: "COc1ccc(/C=N/n2c(C)n[nH]c2=O)cc1"
Response given: > 100 µM

Challenge: Please look up its TGI: N#CSCC1CC(O)(c2ccccc2)C(c2ccccc2)C(c2ccc(F)cc2)O1 (stereo not drawn)
Response given: 11.6 µM

Challenge: Please look up its TGI: "O=S(=O)(O)c1ccc(N=Nc2ccc(N=Nc3ccc(/C=C/c4ccc(N=[N+]([O-])c5ccc(/C=C/c6ccc(N=Nc7ccc(N=Nc8ccc(S(=O)(=O)O)cc8)c8ccccc78)cc6S(=O)(=O)O)c(S(=O)(=O)O)c5)cc4S(=O)(=O)O)c(S(=O)(=O)O)c3)c3ccccc23)cc1"
Response given: > 100 µM

Challenge: Please look up its TGI: "COc1cccc(/C=C/C(=O)c2cc3c(N)c(C(=O)Nc4cccc(Cl)c4C)sc3nc2C)c1"
Response given: > 24.8 µM

Challenge: Please look up its TGI: CNC1NC(=O)c2ccccc2N1Cc1ccc(F)cc1 (stereo not drawn)
Response given: > 100 µM

Challenge: Please look up its TGI: "CN(C)CC#Cc1cccc(C(=O)c2cnn(-c3ccc(F)cc3)c2N)c1"
Response given: > 25 µM

Challenge: Please look up its TGI: "CCc1nc2ccc(Cc3ccc(C(=O)NO)cc3)cc2c(=O)n1CCc1ccccc1"
Response given: 6.82 µM

Challenge: Please look up its TGI: "Cc1nn2c(/C=C3/C(=O)Nc4ccccc43)c(-c3ccc(Cl)cc3)nc2s1"
Response given: > 50 µM

Challenge: Please look up its TGI: "OCCCN(CCc1ccc(Cl)c(Cl)c1)CCN1CCCC1"
Response given: 79.9 µM

Challenge: Please look up its TGI: "O/N=C1\CC2(N3CCOCC3)CCC1(Cc1ccccc1)CC2"
Response given: > 100 µM

Challenge: Please look up its TGI: "c1cncc(C(Nc2cccc3cccnc23)Nc2cccc3cccnc23)c1"
Response given: > 100 µM

Challenge: Please look up its TGI: CO/N=C1/C(n2[nH]c(=O)n(-c3ccccc3)c2=O)C2C=CC1n1c(=O)n(-c3ccccc3)c(=O)n12 (stereo not drawn)
Response given: > 100 µM
